system: NCI/ADR-RES; test: NCI tumour cell line growth inhibition, 48 h
Active and inactive are the calls of the source. No stated cut-off is given here; in the data, active = GI50 up to about 1.1 µM and inactive = higher. *1 amine or outer side, *2 acyl side, *3 side chain or, on linkers, in order; H or OH if unused. Where a SMILES comes first, the peptide text is derived from it. [ ]: non-standard residue; d: D form. The star is where a group is joined. X31 = CC(=O)N(C)SCC(N[*:1])C(=O)[*:2]; Fmoc = O=C(OCC1c2ccccc2-c2ccccc21)*; For = O=C*
For each entry below, report its GI50 value.

Form field: GI50 recorded for "O=C(O)CSCCc1ccccc1" with NCI/ADR-RES (enter value)
> 100 µM (inactive)

Missing value: GI50, NCI/ADR-RES, entry "Cn1/c(=N\c2ccc(Cl)cc2)sc2ccccc21" . Fill in?
34.7 µM (inactive)

Observed GI50 on NCI/ADR-RES for "O=c1oc2ccc([N+](=O)[O-])cc2c(Nc2ccc3c(c2)S(=O)(=O)c2ccccc2O3)c1[N+](=O)[O-]" , please.
> 100 µM (inactive)

Tell me reported GI50 for "CCOCc1nc2c(OC)c(-c3nc4ccc(N5CCN(C)CC5)cc4[nH]3)cc(OC)c2[nH]1" , tested with NCI/ADR-RES.
> 100 µM (inactive)

Give NCI/ADR-RES GI50 for "N#Cc1nsnc1-c1nc(-c2nsnc2C#N)nc(-c2nsnc2C#N)n1"
> 100 µM (inactive)

API: value(readout= GI50, system= NCI/ADR-RES, query= CC(=O)N(C)SCC(NC(=O)C(Cc1ccccc1)NC(=O)OCC1c2ccccc2-c2ccccc21)C(=O)NC(Cc1ccccc1)C(=O)NC(Cc1cn(C=O)c2ccccc12)C(=O)NC(CCCCNC(=O)OCC1c2ccccc2-c2ccccc21)C(=O)NC(C(=O)NC(CSN(C)C(C)=O)C(=O)NC(C(N)=O)C(C)O)C(C)O (configuration not stated) (Fmoc-F[X31]FW(For)K(Fmoc)T[X31]T-NH2; configuration not given here) )
> 100 µM (inactive)

Record lookup: for NCI/ADR-RES, what GI50 belongs to COc1cccc(C2c3cc4c(cc3OC(N3CCOCC3)C2C)OCO4)c1 (configuration not stated) ?
13.7 µM (inactive)

Any idea what GI50 came out for C1CN(C23OC4(N5CCOCC5)C5C6CC(C7C6C4C72)C53)CCO1 (configuration not stated) on NCI/ADR-RES?
> 100 µM (inactive)

# get_value(readout= GI50, system= NCI/ADR-RES) for "CCOC(=O)c1sc2nc(SC)nc(N3CCCCC3)c2c1N"
> 100 µM (inactive)

So what GI50 did "O=C(O)CN1CCN2CCOCCN(CC1)CCN(CC(=O)O)CC2" get with NCI/ADR-RES?
> 100 µM (inactive)

NCI/ADR-RES / GI50 / CC(C)(Cl)C(Br)CC/C(=C/CCl)CBr.CC(C)(Cl)C(Br)CC/C(=C\CCl)CBr (configuration not stated) : value?
3.23 µM (inactive)

NCI/ADR-RES / GI50 / C[C@H]1C(OCCOC2O[C@@H]3O[C@@]4(C)CC[C@H]5[C@H](C)CCC([C@H]2C)[C@@]35O4)O[C@@H]2O[C@@]3(C)CC[C@H]4[C@H](C)CCC1[C@@]24O3 (some centres not stated) : value?
25.1 µM (inactive)

Missing value: GI50, NCI/ADR-RES, entry "C=C(CCC/C(C)=C/C=C/[C@@H](C)CCCc1ccoc1)C[C@@H]1OC(=O)[C@H](C)[C@@H]1O" . Fill in?
9.04 µM (inactive)

What measured GI50 is associated with "COc1ccc2c(c1)CC[C@@H]1[C@@H]2CC[C@]2(C)C(=O)/C(=C/c3ccc(OC)c(OC)c3)C[C@@H]12" on NCI/ADR-RES?
> 100 µM (inactive)

Form: Entry = CCCNC1=Nc2ccccc2NC(C)C1 (configuration not stated) | System = NCI/ADR-RES | GI50 = ____
> 100 µM (inactive)

Entry "CCCCNc1nc(N)nc(Nc2ccc(Br)cc2)c1N=O" , system NCI/ADR-RES: what GI50 was measured?
39.4 µM (inactive)

Requested read-out GI50, target or system NCI/ADR-RES, entry CCOC(=O)C(C)c1nc2c(Cl)c3ncccc3cc2[nH]c1=O (configuration not stated)
29.9 µM (inactive)

====

tested on: HCT-15
Under this convention, y denotes GI50 strictly below 20 µM and n denotes GI50 at or above 20 µM.

I'd appreciate it if you could check whether "O=C(CBr)NCCc1c[nH]c2ccccc12" has GI50 smaller than 20 µM.
y

Field: below-cutoff. Rule: recorded GI50 strictly less than 20 µM. Subject: CCC1CNC(=O)CC1CC(=O)OC (stereo unspecified)
n

For "CCSc1nc(=S)n(-c2ccccc2)c(C)c1C(C)=O" , is the recorded GI50 below the cut-off of 20 µM?
n

Please state whether GI50 is below 20 µM for "COC(=O)C1=C(O)CCCC(CCC(C)=O)=C1"
n

Below 20 µM on GI50? Entry "Nc1nc(N)c(N=O)c(Nc2ccc(O)cc2)n1"
n

GI50 under 20 µM? Item: COc1cc(C)c(CC/C(C)=C/Cc2cc(O)ccc2O)c(C)c1C [PANICEIN A HYDROQUINONE]
n

Does this compound meet the criterion GI50 < 20 µM? "N#Cc1ccc(Oc2nc3ccccc3nc2-c2ccccc2)cc1"
n

Given the entry "COc1cc(C(=O)Nc2nnc(S(N)(=O)=O)s2)cc(OC)c1OC" , would its reported GI50 be below 20 µM?
n

Input "O=C(OCc1ccccc1)N1CCNCCNCCN(C(=O)OCc2ccccc2)CCNCC1" ; condition: GI50 strictly below 20 µM. Does it hold?
y

Lab log: compare recorded GI50 with 20 µM; is it strictly lower for "N#CC(C#N)=CSc1ccccc1" ?
n

Quick check: GI50 of C=CCNC(=O)N(CCC)CCCC(NC(C)=O)C(=O)NCc1ccccc1 (stereo unspecified) under 20 µM?
n

Determine whether this compound shows GI50 lower than 20 µM (ties excluded): "O=[N+]([O-])c1ccc(/C=C\c2ccc3c(c2)OCO3)c([N+](=O)[O-])c1"
y

Answer whether the compound "O=c1oc2ccccc2c(Nc2ccc3c(c2)Sc2ccccc2O3)c1[N+](=O)[O-]" has GI50 strictly less than 20 µM
n

Hello, is GI50 of the following compound strictly smaller than 20 µM? "COc1ccc2[nH]c3c(c2c1)CC(=O)N1CCC[C@H](C1)CC31OCCCO1"
n

Say whether its GI50 is strictly beneath 20 µM. Entry: "N=C(N)NC(=N)Nc1c(F)c(F)c(F)c(F)c1F"
n

Quick check: does CC(C)C1=C(O)C(=O)C2=C(C1=O)C(OC=O)C(O)C1C(C)(C)CCCC21C (stereo unspecified) have GI50 under 20 µM?
y

In plain terms, does COc1cc([C@@H]2c3cc4c(cc3[C@@H](NC(=O)c3ccc(OC(C)=O)cc3)C3COC(=O)[C@@H]32)OCO4)cc(OC)c1O (stereo partly specified) come in under 20 µM for GI50?
y

Please let me know if "CCCCCCc1cc2cc(-c3csc(CC#N)n3)c(=O)oc2cc1O" shows GI50 below 20 µM.
n

Strictly below 20 µM in GI50? "CN(C)/C=C/C(=O)c1cccc(C(=O)/C=C/N(C)C)n1"
n

Is the reported GI50 for C[C@H]1C(OCCOC2O[C@@H]3O[C@@]4(C)CC[C@H]5[C@H](C)CCC([C@H]2C)[C@@]35O4)O[C@@H]2O[C@@]3(C)CC[C@H]4[C@H](C)CCC1[C@@]24O3 (stereo partly specified) strictly below 20 µM?
n

Does this compound meet the criterion GI50 < 20 µM? "O=C(N/N=C/c1ccccc1)c1cccc2nc3ccccc3nc12"
y

====

test system: SR; assay: NCI tumour cell line growth inhibition, 48 h
The source made the active and inactive calls. Cut-off read from the data, not from the text of the source: active = GI50 up to about 1.1 µM and inactive = higher.
Bench note: report the call from 1 (yes) for active, 0 (no) for inactive

Name the outcome recorded for "CSc1cc(Cl)c(C)cc1S(=O)(=O)NC(=O)NNc1ccccn1" in the assay.
0 (no)

Recorded test outcome, item "O=c1oc2ccccc2c(Nc2ccc3c(c2)Sc2ccccc2O3)c1[N+](=O)[O-]"
0 (no)

Fill in: this test's call for "N=C(N)NC(=N)Nc1c(F)c(F)c(F)c(F)c1F" is ___
0 (no)

For CCOC(=O)C1(C#N)C(c2ccccc2)CC(O)(c2ccc(OC)cc2)C(C(=O)c2ccc(OC)cc2)C1c1ccccc1 (centres undefined) , what call appears in the results of this test?
0 (no)

Lab log entry: "O=C(CBr)NCCc1c[nH]c2ccccc12" — outcome as called in the assay?
1 (yes)

What did this assay record as the result for CC1(/C=C/CCSc2ccccc2)CC(=O)C2CC1C2(C)C (centres undefined) ?
0 (no)

Outcome? "O=C(OCc1ccccc1)N1CCNCCNCCN(C(=O)OCc2ccccc2)CCNCC1"
0 (no)

I would be grateful if you could indicate the recorded call for C[C@H]1C(OCCOC2O[C@@H]3O[C@@]4(C)CC[C@H]5[C@H](C)CCC([C@H]2C)[C@@]35O4)O[C@@H]2O[C@@]3(C)CC[C@H]4[C@H](C)CCC1[C@@]24O3 (some centres undefined) .
0 (no)

Name the outcome recorded for "O=C(SCc1cccc2ccccc12)c1ccc(Cl)cc1" in the assay.
0 (no)

Cited source: ChEMBL document CHEMBL1201862
